Hello, the source for this data is ChEMBL document CHEMBL2169798, in case you need it.

Biological target: Glucose-6-phosphate 1-dehydrogenase (Plasmodium falciparum, UniProt Q25856)
Sequence (Q25856 whole entry): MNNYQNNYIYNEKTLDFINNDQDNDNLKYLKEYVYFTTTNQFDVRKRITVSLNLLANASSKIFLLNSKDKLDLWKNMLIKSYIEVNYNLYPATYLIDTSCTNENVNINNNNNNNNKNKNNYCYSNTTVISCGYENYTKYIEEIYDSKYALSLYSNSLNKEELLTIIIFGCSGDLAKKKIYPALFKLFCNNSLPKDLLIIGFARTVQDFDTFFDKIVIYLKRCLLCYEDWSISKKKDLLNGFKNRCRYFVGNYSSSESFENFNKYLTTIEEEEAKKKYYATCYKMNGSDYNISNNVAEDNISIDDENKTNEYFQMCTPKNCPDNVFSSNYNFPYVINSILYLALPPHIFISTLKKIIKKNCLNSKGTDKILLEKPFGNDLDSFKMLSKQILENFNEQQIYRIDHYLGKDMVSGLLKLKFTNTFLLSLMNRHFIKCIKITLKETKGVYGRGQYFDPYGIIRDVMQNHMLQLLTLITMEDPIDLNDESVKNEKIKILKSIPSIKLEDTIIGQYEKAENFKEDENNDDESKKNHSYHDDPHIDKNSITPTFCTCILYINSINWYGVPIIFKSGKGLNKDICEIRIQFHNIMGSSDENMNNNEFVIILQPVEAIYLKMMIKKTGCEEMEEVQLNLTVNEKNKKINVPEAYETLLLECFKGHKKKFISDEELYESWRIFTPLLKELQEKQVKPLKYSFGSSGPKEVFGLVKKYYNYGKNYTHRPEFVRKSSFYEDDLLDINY
Assay: Inhibition of Plasmodium falciparum glucose-6-phosphate dehydrogenase after 2 hrs by resazurin/diaphorasecoupled assay
// pIC50 lookup, one value per entry
# reply with the number alone; pIC50 is -log10 of concentration in mol/L

Worked examples, 2 compounds total:
COMPOUND	VALUE OBSERVED
CCN(CC)CCNC(=O)c1ccc2c(c1)NC(=O)/C(=C/c1ccc(OC)c(OC)c1)S2	4.22
NC1CCN(C(=O)c2ccc3c(c2)NC(=O)/C(=C/c2ccccc2F)S3)C1 (stereo not given)	4.35

Turning now to a further compound:
Give Glucose-6-phosphate 1-dehydrogenase (Plasmodium falciparum, UniProt Q25856) pIC50 for CCN1CCCC1CNC(=O)c1ccc2c(c1)NC(=O)/C(=C/c1cccc3ccccc13)S2 (stereo not given)
5.37
